molecular target: Bile acid receptor (Homo sapiens) (UniProt Q96RI1); assay: qHTS assay to identify small molecule antagonists of the farnesoid-X-receptor (FXR) signaling pathway (AID 743217); conditions: HEK293T FXR-UAS-bla, beta-lactamase ratio, CDCA-stimulated, 16 h; series mostly up to 62.6 µM; further: on the % scale 0 is the no-effect control and ±100 the full control effect
Sequence (Q96RI1 whole entry, looked up): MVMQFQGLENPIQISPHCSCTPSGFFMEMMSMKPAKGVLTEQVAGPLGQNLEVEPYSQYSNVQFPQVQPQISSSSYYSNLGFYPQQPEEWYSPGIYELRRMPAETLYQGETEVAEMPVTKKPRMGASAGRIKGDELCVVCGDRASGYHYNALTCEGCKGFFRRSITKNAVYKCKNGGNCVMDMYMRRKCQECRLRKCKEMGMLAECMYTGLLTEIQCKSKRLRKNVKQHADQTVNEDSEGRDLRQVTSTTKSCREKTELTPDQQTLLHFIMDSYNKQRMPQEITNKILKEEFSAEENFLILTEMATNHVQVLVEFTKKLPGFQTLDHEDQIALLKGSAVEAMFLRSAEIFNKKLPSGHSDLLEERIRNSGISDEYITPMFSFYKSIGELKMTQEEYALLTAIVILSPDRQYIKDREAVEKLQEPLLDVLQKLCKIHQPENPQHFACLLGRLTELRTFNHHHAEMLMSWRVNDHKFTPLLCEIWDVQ
Results filed as inconclusive are left out. Active and inactive are the calls of the source. The call rests on the fitted dose curve; in most records, active means well fitted inhibition curve with a large enough effect in the signal ratio in the repeat runs (not every such curve was filed as active); inconclusive means weak or mixed curves, or effect the other way; inactive means no such curve, though single readings can be large or run the other way; the % refers to the signal ratio.

{"columns": ["SMILES_REPR", "outcome"],
 "data": [
  ["CC1(C)NC(=O)N(c2ccc([N+](=O)[O-])c(C(F)(F)F)c2)C1=O", "inactive"],
  ["Brc1nc2ccccc2s1", "inactive"],
  ["COC(=O)c1ccc(C)cc1", "inactive"]
]}

----------
experiment: qHTS assay to identify small molecule antagonists of the estrogen receptor alpha (ER-alpha) signaling pathway using the BG1 cell line in the presence of 0.1 nM 17-beta-estradiol - cell viability counter screen (AID 1259241); settings: VM7Luc4E2 (BG1) viability, CellTiter-Fluor protease, 22 h, 0.1 nM estradiol agonist added; series mostly up to 92.4 µM; further: nearly all actives have a fitted effect of over 40% in size
Inconclusive results are not listed. Calls of active or inactive are those of the source. The call rests on the fitted dose curve; in most records, active means well fitted cell-killing curve with a large enough effect in the repeat runs; inconclusive means weak or mixed curves, or effect the other way; inactive means flat fitted curve, though single readings scatter.
Allowed answers: true (1) = active, false (0) = inactive

Some solved entries appear below for comparison.
{"columns": ["MOLECULE", "CLASS"],
 "data": [
  ["COc1ccc(-c2coc3cc(O)cc(O)c3c2=O)cc1", "false (0)"],
  ["CC1(C)NC(=O)N(c2ccc([N+](=O)[O-])c(C(F)(F)F)c2)C1=O", "false (0)"],
  ["CCC/C=C/C=O", "false (0)"],
  ["CC(=O)Oc1ccc(C(c2ccc(OC(C)=O)cc2)c2ccccn2)cc1", "true (1)"],
  ["CC1(C)O[C@@H]2C[C@H]3[C@@H]4C[C@H](F)C5=CC(=O)C=C[C@]5(C)[C@@]4(F)[C@@H](O)C[C@]3(C)[C@]2(C(=O)CO)O1", "false (0)"]
]}

Request: # fetch the recorded call for Cc1ccc(/C(=C\CN2CCCC2)c2ccccn2)cc1 here
Response: false (0)

Request: # fetch the recorded call for Nc1cc(Cl)c(N)c(Cl)c1 here
Response: false (0)

Request: # fetch the recorded call for CC(C)=CCO here
Response: false (0)

Request: # fetch the recorded call for CCc1cccc2c3c([nH]c12)C(CC)(CC(=O)O)OCC3 (stereo not drawn) here
Response: false (0)

Request: # fetch the recorded call for C=C[C@H]1CN2CC[C@H]1C[C@H]2[C@H](O)c1ccnc2ccc(OC)cc12 here
Response: false (0)

----------
test: qHTS RealTime-Glo MT Cell Viability Assay in HEK293 cells - 40 hour (AID 1224874); details: RealTime-Glo luminescence; active compounds read low; further: on the % scale 0 is the no-effect control and ±100 the full control effect; nearly all actives have a fitted effect of over 50% in size
Records with an inconclusive call do not appear.
Rule for this label: Yes means max response is less than -20%; No means max response is at least -20%.

{"columns": ["COMPOUND", "CLASS"],
 "data": [
  ["COC(=O)C(C)Oc1ccc(Oc2ncc(C(F)(F)F)cc2Cl)cc1 (stereo unspecified)", "Yes"],
  ["COc1ccc(C(=O)c2ccccc2O)c(O)c1", "No"],
  ["O=Cc1ccccc1C=O", "No"],
  ["COc1cc([C@H]2Oc3cc([C@H]4Oc5cc(O)cc(O)c5C(=O)[C@@H]4O)ccc3O[C@@H]2CO)ccc1O", "No"]
]}

Request: Report whether reported max response is lower than -20% (strictly) for Nc1cc(Cl)c(N)c(Cl)c1
Response: No
